Reference source for all entries: PubChem BioAssay (NCATS)

Experiment: qHTS profiling for inhibitors of Plasmodium falciparum proliferation (AID 504749); note: nearly all actives have a fitted effect of over 60% in size;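 for activity, negative = inhibition: 0% = DMSO vehicle and full inhibition = artemisinin control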
Conditions: P. falciparum in erythrocytes, SYBR Green DNA, 72 h; at 12.8 µM (top of the series); parasite line B
Experimental: NIH National Institute of Allergy and Infectious Diseases [NIAID] NIH Chemical Genomics Center [NCGC] […] Because mature erythrocytes lack DNA, only Plasmodium-derived DNA is detected. NCGC Assay Protocol Summary: The SYBR Green viability assay was adapted from a method described previously (Plouffe et al., 2008). […] The following morning, fluorescence intensity at 485(14) nm excitation and 535(25) nm emission wavelengths was measured on an EnVision (Perkin Elmer) plate reader. […]
Records with an inconclusive call do not appear.
test readout: activity, negative = inhibition (%)
Give bare numbers, in %.

Some entries whose results are on file:
[[record]]
smiles_record = "NNCCc1ccccc1"
measured = -6.84

[[record]]
smiles_record = "N#Cc1ccc(C(c2ccc(C#N)cc2)n2cncn2)cc1"
measured = 3.12

[[record]]
smiles_record = "Cc1oncc1C(=O)Nc1ccc(C(F)(F)F)cc1"
measured = 9.52

[[record]]
smiles_record = "Nc1nc2c(ncn2COCCO)c(=O)[nH]1"
measured = -5.76


# per-item lookup of activity, negative = inhibition; items listed below
1. CCCCNc1cc(C(=O)O)cc(S(N)(=O)=O)c1Oc1ccccc1
2. Nc1ccc(S(=O)(=O)Nc2ccnn2-c2ccccc2)cc1

1: 8.34; 2: 3.8

###

Assay: qHTS of pediatric cancer cell lines to identify multiple opportunities for drug repurposing: Primary screen for SJ-GBM2 cells (AID 1347091)
Details: SJ-GBM2 viability, CellTiter-Glo luminescence, 48 h; series mostly up to 46 µM
Inconclusive results are not listed. Calls of active or inactive are those of the source. Calls come from the whole dose curve; as a rule, active = well fitted cell-killing curve with a large enough effect; inconclusive = small, poorly fitted or top-dose-only effect; inactive = no such curve, though single readings can be large or run the other way.
A correct response names exactly one class from active, inactive

[[record]]
molecule = "S=C(NCc1ccc2c(c1)OCO2)N1CCN(c2ncnc3c2oc2ccccc23)CC1"
classification = "inactive"


Kindly consider the entry below.
Hey, what did the test say about Cc1cc([C@@H](C)Nc2ccccc2C(=O)O)c2nc(N3CCOCC3)cc(=O)n2c1 ? active

###

Assay: Quantitative High-Throughput drug screen in 47 multiple myeloma cell lines against the NCATS MIPE library collection: PCM6_Riken cell viability assay (AID 1919870); note: nearly all actives have a fitted effect of over 30% in size
Details: CellTiter-Glo ATP, 48 h; series mostly up to 45.8 µM
Inconclusive results are not listed. Active and inactive are the calls of the source. Calls follow the shape of the dose curve; as a rule, active = well fitted cell-killing curve with a large enough effect; inconclusive = small, poorly fitted or top-dose-only effect, or effect the other way; inactive = no such curve, though single readings can be large or run the other way.
A correct response names exactly one class from true for active, false for inactive

Solved cases below.
[[record]]
compound = "CC(C)(C)OC(=O)CN(Cc1ccc(Cl)cc1)Cc1ccc([N+](=O)[O-])s1"
classification = "false"

[[record]]
compound = "Clc1cccc(Cl)c1NC1=NCCN1"
classification = "false"

[[record]]
compound = "CCn1cc(C(=O)O)c(=O)c2cc(F)c(N3CCNC(C)C3)c(F)c21 (stereo not given)"
classification = "false"

[[record]]
compound = "O=C(O)CCc1ccc(NCc2cccc(Oc3ccccc3)c2)cc1"
classification = "false"

[[record]]
compound = "COc1cc(Oc2ccnc3cc(OC)c(OC)cc23)ccc1NC(=O)NC(C)c1nccs1 (stereo not given)"
classification = "true"

[[record]]
compound = "Cc1cccc(-c2[nH]c(C(C)(C)C)nc2-c2ccc3nccnc3c2)n1"
classification = "true"

[[record]]
compound = "c1ccc(-c2nn3c(c2-c2ccnc4cc(OCCN5CCOCC5)ccc24)CCC3)nc1"
classification = "true"

[[record]]
compound = "Cc1c(CN2CCN(C(=O)C(C)C)CC2)sc2c(N3CCOCC3)nc(-c3cnc(N)nc3)nc12"
classification = "true"


Kindly consider the entry below.
Hey, what did the test say about C[C@H](NC(=O)Cc1cc(F)cc(F)c1)C(=O)N[C@@H]1C(=O)N(C)c2ccccc2-c2ccccc21 ? true

###

Test: Quantitative High-Throughput drug screen in 47 multiple myeloma cell lines against the NCATS MIPE library collection: OCIMY5_PLB cell viability assay (AID 1918988); note: nearly all actives have a fitted effect of over 65% in size
Conditions: OCI-MY5 myeloma viability, ATP luminescence, 48 h; series mostly up to 45.8 µM
Text: PI: Beverly A. Mock Ph.D. Laboratory of Cancer Biology and Genetics, Center for Cancer Research, National Cancer Institute, National Institute of Health, Bethesda, Maryland […] 5; Detector; 425V; Luminescence; Viewlux PerkinElmer. […] 1. […] Briefly, the corresponding myeloma cell lines were screened in 1,536-well plates with 500 cells, 5-uL per well for inhibition of cell viability (assessed by measuring ATP levels with CellTiterGlo). […]
Records with an inconclusive call do not appear. Active and inactive are the calls of the source. Calls follow the shape of the dose curve; as a rule, active = well fitted cell-killing curve with a large enough effect; inconclusive = small, poorly fitted or top-dose-only effect, or effect the other way; inactive = no such curve, though single readings can be large or run the other way.
A correct response names exactly one class from active, inactive

[[record]]
compound = "COc1ccc([C@@H]2CC(=O)c3c(O)cc(O[C@@H]4O[C@H](CO[C@@H]5O[C@@H](C)[C@H](O)[C@@H](O)[C@@H]5O)[C@@H](O)[C@H](O)[C@@H]4O)cc3O2)cc1O"
classification = "active"

[[record]]
compound = "C[C@]12CC[C@H](O)CC1=CC[C@@H]1[C@H]2CC[C@]2(C)C(c3cccnc3)=CC[C@H]12"
classification = "inactive"

[[record]]
compound = "NCCCC(N)(C(=O)O)C(F)F (centres undefined)"
classification = "active"

[[record]]
compound = "CN(C)c1ccc(Nc2nc(N)n(C(=O)c3c(F)cccc3F)n2)cc1"
classification = "active"

[[record]]
compound = "O=C1[C@H](Cc2ccc(O)cc2)N2C(=O)CCN(C(=O)NCc3ccccc3)[C@H]2CN1Cc1cccc2ccccc12"
classification = "active"


Hey, what did the test say about CC(C=CC1=C(C)CCCC1(C)C)=CC=CC(C)=CC(=O)O ? active

# iterate: OC(CCN1CCCCC1)(c1ccccc1)C1CC2C=CC1C2 (centres undefined) inactive

# iterate: O=C(Nc1ccc(F)c(C(F)(F)F)c1)Nc1nnc(-c2ccncc2)s1 active

# iterate: C1COC(NC(C2CC2)C2CC2)=N1 inactive

###

System: CP260
Assay: qHTS profiling for inhibitors of Plasmodium falciparum proliferation (AID 504749); note: nearly all actives have a fitted effect of over 60% in size
Details: P. falciparum in erythrocytes, SYBR Green DNA, 72 h; series mostly up to 28.7 µM
Results filed as inconclusive are left out. The source made the active and inactive calls. Calls follow the shape of the dose curve; as a rule, active = well fitted inhibition curve with a large enough effect; inconclusive = small, poorly fitted or top-dose-only effect; inactive = flat fitted curve, though single readings scatter.
A correct response names exactly one class from active, inactive

Solved cases below.
[[record]]
compound = "Cc1[nH]c(=O)c(C#N)cc1-c1ccc2nccn2c1"
classification = "inactive"

[[record]]
compound = "O=C1CCc2cc(OCCCCc3nnnn3C3CCCCC3)ccc2N1"
classification = "inactive"

[[record]]
compound = "CCOC(=O)N1CCC(=C2c3ccc(Cl)cc3CCc3cccnc32)CC1"
classification = "active"

[[record]]
compound = "COc1ccc2nc(S(=O)Cc3ncc(C)c(OC)c3C)[nH]c2c1 (stereo not drawn)"
classification = "inactive"

[[record]]
compound = "Nc1ccc(S(=O)(=O)Nc2ccnn2-c2ccccc2)cc1"
classification = "inactive"


Kindly consider the entry below.
Hey, what did the test say about CCCc1nn(C)c2c(=O)[nH]c(-c3cc(S(=O)(=O)N4CCN(C)CC4)ccc3OCC)nc12 ? inactive

###

Test: Quantitative High-Throughput drug screen in 47 multiple myeloma cell lines against the NCATS MIPE library collection: MM1S_ATCC cell viability assay (AID 1918980); note: nearly all actives have a fitted effect of over 45% in size
Settings: MM1S myeloma viability, CellTiter-Glo ATP luminescence, 48 h; series mostly up to 45.8 µM
Inconclusive results are not listed. Activity calls are given as the source filed them. Calls follow the shape of the dose curve; as a rule, active = well fitted cell-killing curve with a large enough effect; inconclusive = small, poorly fitted or top-dose-only effect, or effect the other way; inactive = no such curve, though single readings can be large or run the other way.
A correct response names exactly one class from active, inactive

Solved cases below.
[[record]]
compound = "NC(N)=NC(=O)c1nc(Cl)c(N)nc1N"
classification = "active"

[[record]]
compound = "Cc1cc2c(C(C)C)c(O)c(O)c(C=O)c2c(O)c1-c1c(C)cc2c(C(C)C)c(O)c(O)c(C=O)c2c1O"
classification = "active"

[[record]]
compound = "COc1ccccc1-c1cccc(-c2c(O)c3cc(C#N)c(Cl)cc3[nH]c2=O)c1"
classification = "inactive"

[[record]]
compound = "CCn1c(-c2nonc2N)nc2c(C#CC(C)(C)O)ncc(OC[C@H]3CCCNC3)c21"
classification = "active"

[[record]]
compound = "CC(C)NCC(O)COc1ccc(COCCOC(C)C)cc1 (configuration not stated)"
classification = "inactive"

[[record]]
compound = "Cc1csc(NC(=O)c2sc3nc4c(c(C(F)(F)F)c3c2N)CCC4)n1"
classification = "active"


Hey, what did the test say about CCCc1nn(C)c2c(=O)[nH]c(-c3cc(S(=O)(=O)N4CCN(C)CC4)ccc3OCC)nc12 ? active

# iterate: Cc1ccc(N(CC2=NCCN2)c2cccc(O)c2)cc1 active

###

Test: Quantitative High-Throughput drug screen in 47 multiple myeloma cell lines against the NCATS MIPE library collection: ARP1_JJKsccF8 cell viability assay (AID 1918928; note: nearly all actives have a fitted effect of over 40% in size;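 for viability: 100% = DMSO only wells and 0% = medium only wells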)
Conditions: ARP1 myeloma cells viability, CellTiter-Glo ATP, 48 h; series mostly up to 45.8 µM
Inconclusive results are not listed. The source made the active and inactive calls. The call rests on the fitted dose curve; in most records, active means well fitted cell-killing curve with a large enough effect; inconclusive means small, poorly fitted or top-dose-only effect, or effect the other way; inactive means no such curve, though single readings can be large or run the other way.
A correct response names exactly one class from 1 = active, -1 = inactive

Solved cases below.
[[record]]
molecule = "O=c1n(CCCN2CCN(c3cccc(Cl)c3)CC2)nc2ccccn12"
classification = -1

[[record]]
molecule = "O=c1[nH]cnc2[nH]ncc12"
classification = -1

[[record]]
molecule = "NC(=O)c1ccc(-c2nc(-c3ccc4c(c3)OCCO4)c(-c3ccccn3)[nH]2)cc1"
classification = 1

[[record]]
molecule = "CNC[C@H](O)c1cccc(O)c1"
classification = -1

[[record]]
molecule = "O=C1CCC(N2C(=O)c3ccccc3C2=O)C(=O)N1 (stereo not drawn)"
classification = 1


Hey, what did the test say about N#CC[C@H](C1CCCC1)n1cc(-c2ncnc3[nH]ccc23)cn1 ? -1

# iterate: CC(c1cc2ccccc2s1)N(O)C(N)=O (stereo not drawn) -1
